measurement_description: Plasma pharmacokinetics of phenolic metabolites after one 450 mg capsule of the supplement (UHPLC-ESI-MS/MS)
Type: in vivo, human
assay_setup: n = 10, mean ± SEM, interval between first and last appearance
measurement_kind: Tpres (time of presence of metabolites in circulation) (h)

Example results:
* O=C1CCC(Cc2cccc(O[C@@H]3O[C@H](C(=O)O)[C@@H](O)[C@H](O)[C@H]3O)c2)O1 (stereo partly drawn) | 7.13
* O=C(O)c1ccc(O)c(OS(=O)(=O)O)c1 | 13.45

P = COc1cc(CCC(=O)O)ccc1OS(=O)(=O)O
Q = O=C1CCC(Cc2cc(O)cc(OC3OC(C(=O)O)C(O)C(O)C3O)c2)O1 (stereo not drawn)
R = O=C(O)CNC(=O)c1ccc(O)cc1
### Prompt Rank by Tpres (time of presence of metabolites in circulation) (largest to smallest). Reply with the item labels sorted in the order that was asked for.
### Response R, Q, P

###

measurement_description: Urinary excretion of phenolic metabolites over 48 h after one 450 mg capsule of the supplement (UHPLC-ESI-MS/MS)
Type: in vivo, human
assay_setup: urine, n = 10, mean ± SEM
measurement_kind: Urinary excretion 3–6 (h) (µg)

- O=C1CCC(Cc2cccc(OS(=O)(=O)O)c2)O1 (stereo not shown): 52.98
- O=C(O)C1OC(Oc2cc(CCO)ccc2O)C(O)C(O)C1O (stereo not shown): 69.04
- COc1cc(C(=O)O)cc(OC)c1O.COc1cc(C(=O)O)cc(OC)c1O: 3.89
- O=C1CCC(Cc2cc(O)cc(OC3OC(C(=O)O)C(O)C(O)C3O)c2)O1 (stereo not shown): 101.70
- COc1ccc(C2CC(=O)c3c(O)cc(OC4OC(C(=O)O)C(O)C(O)C4O)cc3O2)cc1O (stereo not shown): 20.07

A = O=C1CCC(Cc2cc(O)cc(OS(=O)(=O)O)c2)O1 (stereo not shown)
B = O=C(O)CCc1ccc(O)c(OS(=O)(=O)O)c1
### Prompt API: POST /compare with A and B ; response names the item with higher Urinary excretion 3–6 (h). Returns: label corresponding to the selected item.
### Response A

P = O=C1CCC(Cc2cccc(O[C@@H]3O[C@H](C(=O)O)[C@@H](O)[C@H](O)[C@H]3O)c2)O1 (stereo partly shown)
Q = O=C(O)c1ccc(O)c(OC2OC(C(=O)O)C(O)C(O)C2O)c1 (stereo not shown)
### Prompt For the pair P and Q , which entry has the numerically smaller recorded Urinary excretion 3–6 (h)? Returns: label corresponding to the selected item.
### Response Q

###

measurement_description: Urinary excretion of phenolic metabolites over 48 h after one 450 mg capsule of the supplement (UHPLC-ESI-MS/MS)
Format: in vivo, human
assay_setup: urine, n = 10, mean ± SEM
measurement_kind: Urinary excretion 0–3 (h) (µg)

Example results:
• COc1ccc(C2CC(=O)c3c(O)cc(OC4OC(C(=O)O)C(O)C(O)C4O)cc3O2)cc1O (centres unmarked) = 4.02
• O=C1CCC(Cc2ccc(OS(=O)(=O)O)c(O)c2)O1 (centres unmarked) = 166.29

P = COc1cc(C(=O)O)cc(OC)c1O.COc1cc(C(=O)O)cc(OC)c1O
Q = O=C(O)CCc1cccc(O)c1.O=C(O)CCc1cccc(O)c1
R = O=C1CCC(Cc2cccc(OS(=O)(=O)O)c2)O1 (centres unmarked)
S = O=C1CCC(Cc2cc(O)cc(OC3OC(C(=O)O)C(O)C(O)C3O)c2)O1 (centres unmarked)
### Prompt Rank by Urinary excretion 0–3 (h) (largest to smallest). Reply with the item labels sorted in the order that was asked for.
### Response Q, P, R, S

a = O=C1CCC(Cc2cccc(O[C@@H]3O[C@H](C(=O)O)[C@@H](O)[C@H](O)[C@H]3O)c2)O1 (some centres unmarked)
b = O=C(O)C1OC(Oc2cc(CCO)ccc2O)C(O)C(O)C1O (centres unmarked)
c = O=C(O)CCc1ccc(O)c(OS(=O)(=O)O)c1
d = O=C1CCC(Cc2cc(O)cc(OS(=O)(=O)O)c2)O1 (centres unmarked)
### Prompt Order the entries by their reported Urinary excretion 0–3 (h), beginning at the minimum. Reply with the item labels sorted in the order that was asked for.
### Response d, a, b, c

###

measurement_description: Plasma pharmacokinetics of phenolic metabolites after one 450 mg capsule of the supplement (UHPLC-ESI-MS/MS)
Format: in vivo, human
assay_setup: n = 10, mean ± SEM
measurement_kind: Tmax (h)

Example results:
* O=C(O)CNC(=O)c1ccc(O)cc1 | 6.50
* O=C1CCC(Cc2ccc(OS(=O)(=O)O)c(O)c2)O1 (stereo not drawn) | 7.00
* O=C1CCC(Cc2cccc(O[C@@H]3O[C@H](C(=O)O)[C@@H](O)[C@H](O)[C@H]3O)c2)O1 (stereo partly drawn) | 5.88

A = O=C(O)CCc1cccc(O)c1.O=C(O)CCc1cccc(O)c1
B = O=C(O)C1OC(Oc2cc(CCO)ccc2O)C(O)C(O)C1O (stereo not drawn)
C = O=C(O)CCc1ccc(O)c(OS(=O)(=O)O)c1
D = O=C1CCC(Cc2cc(O)cc(OC3OC(C(=O)O)C(O)C(O)C3O)c2)O1 (stereo not drawn)
E = O=C(O)c1ccc(O)c(OS(=O)(=O)O)c1
### Prompt Order the entries by their reported Tmax, beginning at the minimum. Reply with the item labels sorted in the order that was asked for.
### Response B, E, C, A, D
(B: 1.45 h, E: 2.10 h, C: 4.56 h, A: 7.13 h, D: 12.78 h)

###

measurement_description: Urinary excretion of phenolic metabolites over 48 h after one 450 mg capsule of the supplement (UHPLC-ESI-MS/MS)
Assay type: in vivo, human
assay_setup: urine, n = 10, mean ± SEM
Experimental: This study was designed as a 3-week randomized, double-blind, cross-over clinical trial. Eligible participants were randomized using simple block randomization of 1:1. […] Plasma and urine samples were analyzed by a UHPLC DIONEX Ultimate 3000 equipped with a triple quadrupole TSQ Vantage (Thermo Fisher Scientific Inc) fitted with a heated ESI (H-ESI) (Thermo Fisher Scientific Inc) probe, as previously reported. […]
measurement_kind: Urinary excretion 14–24 (h) (µg)

• O=C1CCC(Cc2cccc(O[C@@H]3O[C@H](C(=O)O)[C@@H](O)[C@H](O)[C@H]3O)c2)O1 (stereo partly shown) [compound 17] = 468.44
• O=C1CCC(Cc2ccc(OS(=O)(=O)O)c(O)c2)O1 (stereo not shown) [compound 21] = 3618.13
• O=C1CCC(Cc2cccc(OS(=O)(=O)O)c2)O1 (stereo not shown) [compound 23] = 345.14
• O=C(O)CCc1ccc(O)c(OS(=O)(=O)O)c1 [compound 41] = 389.70
• O=C1CCC(Cc2cc(O)cc(OS(=O)(=O)O)c2)O1 (stereo not shown) [compound 16] = 3986.28
• O=C(O)C1OC(Oc2cc(CCO)ccc2O)C(O)C(O)C1O (stereo not shown) [compound 33] = 10.23
• COc1cc(C(=O)O)cc(OC)c1O.COc1cc(C(=O)O)cc(OC)c1O [compound 39] = 3.63
• O=C1CCC(Cc2cc(O)cc(OC3OC(C(=O)O)C(O)C(O)C3O)c2)O1 (stereo not shown) [compound 10] = 624.93
• O=C(O)[C@H]1O[C@@H](Oc2ccc3c(c2)oc(=O)c2ccc(O)cc23)[C@H](O)[C@@H](O)[C@@H]1O [compound 43] = 36.41
• O=C(O)CCc1cccc(O)c1.O=C(O)CCc1cccc(O)c1 [compound 40] = 262.06

A = O=C(O)[C@H]1O[C@@H](Oc2ccc3c(c2)oc(=O)c2ccccc23)[C@H](O)[C@@H](O)[C@@H]1O [compound 44]
B = O=C(O)c1ccc(O)c(OC2OC(C(=O)O)C(O)C(O)C2O)c1 (stereo not shown) [compound 35]
### Prompt API: POST /compare with A and B ; response names the item with higher Urinary excretion 14–24 (h). Returns: label corresponding to the selected item.
### Response A

###

measurement_description: Urinary excretion of phenolic metabolites over 48 h after one 450 mg capsule of the supplement (UHPLC-ESI-MS/MS)
Format: in vivo, human
assay_setup: urine, baseline (day before), n = 10, mean ± SEM
measurement_kind: Urinary excretion 0 (h) (µg)

• O=C1CCC(Cc2cccc(OS(=O)(=O)O)c2)O1 (stereo not shown) [compound 23] = 41.07

P = COc1ccc(C2CC(=O)c3c(O)cc(OC4OC(C(=O)O)C(O)C(O)C4O)cc3O2)cc1O (stereo not shown) [compound 28]
Q = O=C(O)CCc1ccc(O)c(OS(=O)(=O)O)c1 [compound 41]
### Prompt For the pair P and Q , which entry has the numerically smaller recorded Urinary excretion 0 (h)? Returns: label corresponding to the selected item.
### Response P

a = O=C1CCC(Cc2ccc(OS(=O)(=O)O)c(O)c2)O1 (stereo not shown) [compound 21]
b = O=C1CCC(Cc2cc(O)cc(OS(=O)(=O)O)c2)O1 (stereo not shown) [compound 16]
### Prompt For the pair a and b , which entry has the numerically smaller recorded Urinary excretion 0 (h)? Returns: label corresponding to the selected item.
### Response b

a = COc1cc(C(=O)O)cc(OC)c1O.COc1cc(C(=O)O)cc(OC)c1O [compound 39]
b = O=C1CCC(Cc2cccc(O[C@@H]3O[C@H](C(=O)O)[C@@H](O)[C@H](O)[C@H]3O)c2)O1 (stereo partly shown) [compound 17]
c = O=C(O)CCc1cccc(O)c1.O=C(O)CCc1cccc(O)c1 [compound 40]
### Prompt Order the entries by their reported Urinary excretion 0 (h), beginning at the minimum. Reply with the item labels sorted in the order that was asked for.
### Response a, b, c

P = O=C1CCC(Cc2cc(O)cc(OC3OC(C(=O)O)C(O)C(O)C3O)c2)O1 (stereo not shown) [compound 10]
Q = O=C(O)c1ccc(O)c(OC2OC(C(=O)O)C(O)C(O)C2O)c1 (stereo not shown) [compound 35]
### Prompt API: POST /compare with P and Q ; response names the item with higher Urinary excretion 0 (h). Returns: label corresponding to the selected item.
### Response P
(P: 5.34 µg, Q: 1.13 µg)
